Each recorded value in this set is attributed to patent US20250090699A1.

Each record here notes measured Kd.
Target: mouse FAP (Mus musculus)
Construct: biotinylated His, Avi tag, mouse FAP (26-761, FAP-M82Q5); His; Avi tag (biotinylated); purchased AcroBiosystems FAP-M82Q5
Sequence (P97321 26-761): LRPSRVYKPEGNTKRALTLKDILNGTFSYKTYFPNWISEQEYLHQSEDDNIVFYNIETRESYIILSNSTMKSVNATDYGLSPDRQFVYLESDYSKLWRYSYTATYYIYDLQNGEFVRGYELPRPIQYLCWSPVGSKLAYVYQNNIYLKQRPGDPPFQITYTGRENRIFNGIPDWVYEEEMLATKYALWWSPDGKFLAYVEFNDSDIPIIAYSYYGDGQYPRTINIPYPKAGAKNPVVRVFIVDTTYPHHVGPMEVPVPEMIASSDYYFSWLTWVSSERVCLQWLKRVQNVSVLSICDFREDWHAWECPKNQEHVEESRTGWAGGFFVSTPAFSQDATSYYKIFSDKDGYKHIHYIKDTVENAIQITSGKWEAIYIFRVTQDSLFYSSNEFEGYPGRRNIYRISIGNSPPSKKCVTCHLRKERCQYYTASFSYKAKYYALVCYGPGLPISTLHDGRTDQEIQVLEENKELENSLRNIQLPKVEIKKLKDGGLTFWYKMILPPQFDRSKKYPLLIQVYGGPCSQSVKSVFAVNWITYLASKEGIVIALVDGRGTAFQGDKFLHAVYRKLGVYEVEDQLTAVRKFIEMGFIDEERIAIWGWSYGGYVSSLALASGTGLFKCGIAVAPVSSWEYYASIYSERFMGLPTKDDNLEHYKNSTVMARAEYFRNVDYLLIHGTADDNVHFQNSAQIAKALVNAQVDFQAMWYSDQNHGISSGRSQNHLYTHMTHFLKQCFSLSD
Assay: Surface plasmon resonance (SPR) for peptide affinity, mouse FAP
Assay type: binding
Description: Peptide affinities (KD) were determined by SPR using a Biacore™ 8K device (Cytiva) towards the following proteins: biotinylated His, Avi tag, human FAP (26-760, FAP-H82Q6), biotinylated His, Avi tag, mouse FAP (26-761, FAP-M82Q5), His tag, human DPP4 (34-766, DP4-H82E3), all purchased from AcroBiosystems and His tag, mouse DPP4 (29-760, 954-SE) from R&D Systems. […]
Starred links: 1 amine or outer side, 2 acyl side, 3 side chain; linkers in the order of their positions; H or OH if unused. Non-standard residues stand in square brackets, D forms with d. Residues, ends and D or L forms follow the SMILES beside them. Groups on a side chain read outwards from the residue. *: point of attachment. AAZTA5 = O=C(O)CN1CCN(CC(=O)O)CC(CCCCC(=O)*)(N(CC(=O)O)CC(=O)O)C1; Phe(4-CH2NH2) = NCc1ccc(C[C@H](N)C(=O)O)cc1; Piperazinyl(4-CH2COOH) = O=C(O)CN1CCN(*)CC1; NMeF = CN[C@@H](Cc1ccccc1)C(=O)O; Ahp(2) = CCCCC[C@H](N)C(=O)O; hSer = N[C@@H](CCO)C(=O)O; AEEA = NCCOCCOCC(=O)O; CO = O=C([*:1])[*:2]; Propyl = CCC*
reportedMetric: Kd

compound="CCCOCC[C@@H]1NC(=O)[C@H](Cc2ccc(CNC(=O)COCCOCCNC(=O)CCCCC3(N(CC(=O)O)CC(=O)O)CN(CC(=O)O)CCN(CC(=O)O)C3)cc2)NC(=O)[C@H](Cc2ccccc2)N(C)C(=O)CNC(=O)CNC(=O)[C@H]2CCCN2C(=O)[C@H](CC(=O)O)NC(=O)[C@H](CCCCNC(=O)N2CCN(CC(=O)O)CC2)NC(=O)CNC(=O)[C@H](Cc2c[nH]c3ccccc23)NC1=O [Example B31] (cyclo(D[dP]GG[NMeF][Phe(4-CH2NH2)]([AEEA-AAZTA5])[hSer](Propyl)WGK([CO-Piperazinyl(4-CH2COOH)])))" testsystem="mouse FAP (Mus musculus)" testvalue="0.25 nM"
compound="CCCCC[C@@H]1NC(=O)[C@H](Cc2ccc(O)cc2)NC(=O)[C@H](Cc2ccccc2)N(C)C(=O)CNC(=O)CNC(=O)[C@H]2CCCN2C(=O)[C@H](CCCCNC(C)=O)NC(=O)[C@H](Cc2ccc(O)cc2)NC(=O)CNC(=O)[C@H](Cc2c[nH]c3ccccc23)NC1=O [Example A55] (cyclo([Ahp(2)]WGYK(Ac)[dP]GG[NMeF]Y))" testsystem="mouse FAP (Mus musculus)" testvalue="135 nM"
compound="CCCCC[C@@H]1NC(=O)[C@H](Cc2ccc(CNC(C)=O)cc2)NC(=O)[C@H](Cc2ccccc2)N(C)C(=O)CNC(=O)CNC(=O)[C@H]2CCCN2C(=O)[C@H](CC(=O)O)NC(=O)[C@H](Cc2ccc(O)cc2)NC(=O)CNC(=O)[C@H](Cc2c[nH]c3ccccc23)NC1=O [Example A28] (cyclo(GG[NMeF][Phe(4-CH2NH2)](Ac)[Ahp(2)]WGYD[dP]))" testsystem="mouse FAP (Mus musculus)" testvalue="0.52 nM"
